# credit: ChEMBL document CHEMBL1121724

System: Thromboxane-A synthase (Oryctolagus cuniculus)
Experimental context: at 100 µM
Value kind: inhibition (%)
Numbers only; they are read as %.

Solved entries:
According to the records, this compound c1cn[nH]c1 displays inhibition of 8.9

For record c1cscn1 the listed inhibition is 17.3

So for c1ccnnc1 , the logged inhibition turned out to be 16.8

Continuing:
Short answer for c1ncncn1 : inhibition was 11

* * *

Measured on: Thromboxane-A synthase (Oryctolagus cuniculus)
Procedure details: Inhibitory activity against Thromboxane synthetase
Form field: log10 of IC50 (one value per entry).
In our notation, the value equals log10 of IC50 in nM.

A selection of reference data follows.
Entry O=C(O)/C=C/c1ccc(Cc2cccnc2)cc1 ; log10 of IC50 = 1.00

Field log10 of IC50 (entry O=C(O)/C=C/c1ccc(Cc2cccnc2)s1 ) reads 1.67

Quick note, log10 of IC50 for O=C(O)CCCCCc1cccnc1 landed at 1.93

New cases:
response.value for O=C(O)CCc1ccc(Cc2cccnc2)cc1 (field: log10 of IC50) = 2.32

compound C/C(=C/c1ccc(Cc2cccnc2)cc1)C(=O)O , log10 of IC50 observed: 0.48

Reported log10 of IC50 ( O=C(O)CCCCc1cccnc1 ) = 2.70

Reported log10 of IC50 of O=C(O)CCCCCCc1cccnc1 : 1.83

Please fill in: log10 of IC50 reported for C/C(=C\C(=O)O)c1ccc(Cc2cccnc2)c(C)c1 = 1.26
